target: β2-receptors (Canis lupus familiaris); construct: The lungs of mongrel dogs were separated from cartilaginous airways and major blood vessels; from tissue; host or cells: mongrel dog lung membranes; test: Beta-2 binding, 125iodocyanopindolol (ICYP), canine lung membranes; set-up: species or system mongrel dogs; settings: Saturation Analysis; Run 1

molecule: CC(C)(C)NCC(O)COc1cccc2[nH]c(C#N)c(I)c12 (stereo not shown)
Kd: 9.6 pM

* * *

target: β2-receptors (Canis lupus familiaris, UniProt P54833); construct: The lungs of mongrel dogs were separated from cartilaginous airways and major blood vessels; from tissue; host or cells: mongrel dog lung membranes; assay: Beta-2 binding, 125iodocyanopindolol (ICYP), canine lung membranes; design: species or system mongrel dogs; settings: Saturation Analysis; Summary
Sequence (P54833 whole entry): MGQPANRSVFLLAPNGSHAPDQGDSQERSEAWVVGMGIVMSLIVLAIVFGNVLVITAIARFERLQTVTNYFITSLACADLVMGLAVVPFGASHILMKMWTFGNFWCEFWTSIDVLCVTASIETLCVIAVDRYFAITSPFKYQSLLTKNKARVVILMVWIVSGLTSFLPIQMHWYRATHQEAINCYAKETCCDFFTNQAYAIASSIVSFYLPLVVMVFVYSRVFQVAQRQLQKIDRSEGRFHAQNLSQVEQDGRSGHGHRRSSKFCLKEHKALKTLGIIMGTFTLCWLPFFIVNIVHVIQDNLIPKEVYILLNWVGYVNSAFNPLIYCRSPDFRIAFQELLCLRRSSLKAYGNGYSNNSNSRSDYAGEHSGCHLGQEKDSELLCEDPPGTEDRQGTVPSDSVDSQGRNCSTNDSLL
pKd: −log10 of the molar value.

compound: CC(C)(C)NCC(O)COc1cccc2[nH]c(C#N)c(I)c12 (stereo not shown)
pKd: 11.02

Source of measurements: patent EP1030659B1
